target: PRKCH (human) (UniProt P24723); experiment: KINOMEscan competition binding; details: compound 10.0 µM
Sequence (P24723 whole entry, looked up): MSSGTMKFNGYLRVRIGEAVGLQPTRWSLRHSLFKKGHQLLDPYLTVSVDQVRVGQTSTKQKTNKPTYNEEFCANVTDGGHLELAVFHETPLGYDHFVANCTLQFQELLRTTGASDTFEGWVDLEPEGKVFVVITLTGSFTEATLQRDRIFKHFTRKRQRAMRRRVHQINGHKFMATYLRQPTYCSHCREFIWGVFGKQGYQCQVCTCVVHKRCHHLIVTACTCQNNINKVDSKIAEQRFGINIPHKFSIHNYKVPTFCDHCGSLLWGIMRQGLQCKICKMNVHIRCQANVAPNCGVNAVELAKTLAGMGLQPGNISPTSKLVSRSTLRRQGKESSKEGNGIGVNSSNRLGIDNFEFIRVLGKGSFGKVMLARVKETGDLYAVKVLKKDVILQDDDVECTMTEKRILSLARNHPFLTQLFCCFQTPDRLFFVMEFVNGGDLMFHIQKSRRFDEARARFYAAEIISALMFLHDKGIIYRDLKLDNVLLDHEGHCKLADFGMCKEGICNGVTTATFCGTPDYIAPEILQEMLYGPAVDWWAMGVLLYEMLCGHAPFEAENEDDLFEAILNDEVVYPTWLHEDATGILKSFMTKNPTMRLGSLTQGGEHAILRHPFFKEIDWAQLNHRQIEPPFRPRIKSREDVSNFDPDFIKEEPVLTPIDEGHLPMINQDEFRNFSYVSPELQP
outcome-measure: kinase still bound, per cent of control (%)
Answers are plain numbers, in %.

The following molecules have reported results that may help.
compound-string	outcome-measure	reported-result
CN1C(=O)c2ccccc2N(C)c2nc(NS(=O)(=O)c3ccc(N)cc3)ncc21	kinase still bound, per cent of control	86
COc1cc(N2CCN(C)CC2)ccc1Nc1ncc2c(n1)Nc1ccccc1NC2=O	kinase still bound, per cent of control	96
COc1cc(N2CCN(C)CC2)ccc1Nc1ncc2c(n1)N(C)c1sccc1C(=O)N2C	kinase still bound, per cent of control	95

Ask: State, in one line, measured kinase still bound, per cent of control of COc1cc(N2CCN(C)CC2)ccc1Nc1ncc2c(n1)N(C)c1ccccc1N(C)C2=O
Result: 76

* * *

target: RIPK1 (human); test: KINOMEscan competition binding; details: compound 10.0 µM
outcome-measure: kinase still bound, per cent of control (%)
Numbers only, in %.

Solved cases (3 shown):
compound-string	reported-result
COc1cc(N2CCN(C)CC2)ccc1Nc1ncc2c(n1)Nc1ccccc1NC2=O	100
COc1cc(N2CCC(O)CC2)ccc1Nc1ncc2c(n1)N1CCc3cccc(c31)C(=O)N2C	100
COc1cc(N2CCN(C)CC2)ccc1Nc1ncc2c(n1)N(C)c1sccc1C(=O)N2C	100

Provide the reported kinase still bound, per cent of control of each entry below, same order.
1. O=C1NC(=O)/C(=C/c2c[nH]c(=O)c(-c3ccc(N4CCNCC4)nc3)c2)S1
2. COc1cc(N2CCN(C)CC2)ccc1Nc1ncc2c(n1)N(C)c1ccccc1N(C)C2=O

Result:
1: 82; 2: 100

* * *

molecular target: TGFBR2 (human) (UniProt P37173); assay: KINOMEscan competition binding; conditions: compound 10.0 µM
Sequence (P37173 whole entry, looked up): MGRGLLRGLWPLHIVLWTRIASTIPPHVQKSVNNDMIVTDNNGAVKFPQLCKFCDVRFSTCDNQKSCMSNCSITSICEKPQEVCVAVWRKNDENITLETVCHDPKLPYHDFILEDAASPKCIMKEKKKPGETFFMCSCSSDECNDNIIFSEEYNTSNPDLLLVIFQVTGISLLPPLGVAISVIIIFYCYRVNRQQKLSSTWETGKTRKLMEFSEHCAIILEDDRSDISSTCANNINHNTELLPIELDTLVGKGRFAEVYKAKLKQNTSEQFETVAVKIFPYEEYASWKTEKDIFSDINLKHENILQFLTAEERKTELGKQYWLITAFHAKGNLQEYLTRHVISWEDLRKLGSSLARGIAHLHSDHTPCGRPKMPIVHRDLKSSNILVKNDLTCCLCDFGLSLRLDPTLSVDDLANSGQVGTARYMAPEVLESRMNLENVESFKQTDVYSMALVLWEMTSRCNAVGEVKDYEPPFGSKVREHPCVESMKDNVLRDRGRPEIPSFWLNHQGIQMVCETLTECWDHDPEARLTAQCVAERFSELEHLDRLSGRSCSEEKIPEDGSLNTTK
outcome-measure: kinase still bound, per cent of control (%)
Answers are plain numbers, in %.

A selection of reference data follows.
compound-string	result-units	kinase still bound, per cent of control
N=C1NC(=O)/C(=C/c2ccc(-c3cccc4cc[nH]c34)o2)S1	%	5.8
O=C1NC(=S)S/C1=C\c1ccc(-c2cccc3ccccc23)o1	%	14
N=C1NC(=O)/C(=C/c2ccc(-c3cnc4ccccc4c3)o2)S1	%	9.2
CS(=O)(=O)Nc1ccc(-c2ccc(/C=C3\SC(=N)NC3=O)o2)c(O)c1	%	32
N=C1NC(=O)/C(=C/c2ccc(-c3ccc(S(N)(=O)=O)cc3)o2)S1	%	22

Please look at the items below and tell me kinase still bound, per cent of control for each one, in order.
1. COc1cc(N2CCC(O)CC2)ccc1Nc1ncc2c(n1)N1CCc3cccc(c31)C(=O)N2C
2. N=C1NC(=O)/C(=C/c2c[nH]c(=O)c(-c3ccc(N4CCNCC4)nc3)c2)S1
3. O=C1NC(=O)/C(=C/c2c[nH]c(=O)c(-c3ccc(N4CCNCC4)nc3)c2)S1
4. CN1CCN(c2ccc(C(=O)Nc3ncc4c(n3)N(C)c3ccccc3C(=O)N4C)cc2)CC1
5. COc1cc(N2CCN(C)CC2)ccc1Nc1ncc2c(n1)N(C)c1ccccc1N(C)C2=O
6. N=C1NC(=O)/C(=C/c2ccc(-c3csc4ccccc34)o2)S1

Result:
[100, 33, 18, 100, 98, 2.4]

* * *

target: FLT4 (human) (UniProt P35916); test: KINOMEscan competition binding; settings: compound 10.0 µM
Sequence (P35916 whole entry, looked up): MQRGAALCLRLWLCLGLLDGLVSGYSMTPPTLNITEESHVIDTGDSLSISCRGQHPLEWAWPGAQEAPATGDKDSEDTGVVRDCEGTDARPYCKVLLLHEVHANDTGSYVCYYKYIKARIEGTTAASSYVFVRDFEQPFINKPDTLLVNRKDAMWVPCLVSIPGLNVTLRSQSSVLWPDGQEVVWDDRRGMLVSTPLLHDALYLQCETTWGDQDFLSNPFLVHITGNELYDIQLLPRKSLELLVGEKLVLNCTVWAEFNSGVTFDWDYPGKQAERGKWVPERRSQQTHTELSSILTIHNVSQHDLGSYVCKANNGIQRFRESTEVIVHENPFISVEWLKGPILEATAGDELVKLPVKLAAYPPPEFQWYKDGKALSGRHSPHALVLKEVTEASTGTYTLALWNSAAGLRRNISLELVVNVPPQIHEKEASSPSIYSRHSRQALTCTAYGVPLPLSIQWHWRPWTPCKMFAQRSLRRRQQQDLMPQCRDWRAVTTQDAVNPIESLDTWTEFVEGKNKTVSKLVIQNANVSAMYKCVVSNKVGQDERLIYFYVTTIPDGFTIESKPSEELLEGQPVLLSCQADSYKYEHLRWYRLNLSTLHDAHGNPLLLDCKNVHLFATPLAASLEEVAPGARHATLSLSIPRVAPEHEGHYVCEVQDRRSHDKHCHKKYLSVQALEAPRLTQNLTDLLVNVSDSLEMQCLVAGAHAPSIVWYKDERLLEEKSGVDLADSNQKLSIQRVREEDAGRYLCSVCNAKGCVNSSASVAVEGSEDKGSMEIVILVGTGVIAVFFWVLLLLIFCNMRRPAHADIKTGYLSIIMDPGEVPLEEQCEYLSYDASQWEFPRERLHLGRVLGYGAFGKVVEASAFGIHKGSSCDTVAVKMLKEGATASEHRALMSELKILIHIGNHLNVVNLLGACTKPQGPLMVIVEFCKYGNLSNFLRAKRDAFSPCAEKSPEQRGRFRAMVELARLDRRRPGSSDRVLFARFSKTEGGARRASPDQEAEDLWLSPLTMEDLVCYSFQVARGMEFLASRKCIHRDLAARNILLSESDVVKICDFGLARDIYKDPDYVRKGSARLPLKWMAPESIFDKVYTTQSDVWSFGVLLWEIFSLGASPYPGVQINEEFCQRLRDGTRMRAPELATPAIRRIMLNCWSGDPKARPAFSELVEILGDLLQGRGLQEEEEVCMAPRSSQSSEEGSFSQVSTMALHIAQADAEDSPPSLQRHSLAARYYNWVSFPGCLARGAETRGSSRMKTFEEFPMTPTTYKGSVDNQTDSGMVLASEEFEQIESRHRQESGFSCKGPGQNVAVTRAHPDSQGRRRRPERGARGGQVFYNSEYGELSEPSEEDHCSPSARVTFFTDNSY
Rule: kinase still bound, per cent of control below 30% gives true. Equal to or above 30% gives false.

Worked examples follow.
compound-string	assigned-label
CCN1CCN(Cc2cc(NC(=O)c3cccc4cc(-c5ccc(/C=C6\SC(=O)NC6=O)o5)ccc34)cc(C(F)(F)F)c2)CC1	true
CN1C(=O)c2ccccc2N(C)c2nc(Nc3ccc(N4CCC(O)CC4)cc3)ncc21	false
COc1cc(N2CCN(C)CC2)ccc1Nc1ncc2c(n1)N1CCC[C@H]1CC(=O)N2	false
COc1cc(N2CCN(C)CC2)ccc1Nc1ncc2c(n1)N(C)c1sccc1C(=O)N2C	false
COc1cc(N2CCC(O)CC2)ccc1Nc1ncc2c(n1)N1CCc3cccc(c31)C(=O)N2C	false

Now examine the next entry.
Ask: Please check: kinase still bound, per cent of control for CS(=O)(=O)Nc1ccc(-c2ncc(/C=C3\SC(=N)NC3=O)s2)cc1 , strictly under 30% or not?
Result: true
